Form field: TGI (one value per entry).
test system: SNB-75 CNS; assay: NCI tumour cell line growth inhibition, 48 h

| Compound | TGI |
| --- | --- |
| N#Cc1c(N)c(C(=O)O)nn(-c2cccc(C(F)(F)F)c2)c1=O | > 100 µM |
| Nc1n[nH]c2ccccc12 | > 100 µM |
| COc1cc2c3c(n(CCCN4CCC(N)CC4)c(=O)c2cc1OC)-c1cc2c(cc1C3=O)OCO2 | 5.56 µM |
| Cc1ccc([N+](=O)[O-])c2c(NCCCN(C)C)ccnc12 | > 100 µM |
| Clc1cccc(C2ON=C(c3ccccc3)N2C23CC4CC(CC(C4)C2)C3)c1Cl (centres undefined) | > 10 µM |
| CC1=Nc2c(ccc3c2C(=O)c2ccccc2C3=O)NC(c2ccncc2)C1 (centres undefined) | > 100 µM |
| C(=N/Nc1ccc(-c2nc3ccccc3[nH]2)cc1)/c1c(-c2ccccc2)[nH]c2ccccc12 | 59.9 µM |
| O=C(NCCCNCCCCNCCCNC(=O)C(F)(F)F)C(F)(F)F | > 100 µM |
| NC1=NC(=O)C(CC(=O)Nc2ccc([N+](=O)[O-])cc2[N+](=O)[O-])S1 (centres undefined) | > 100 µM |
| CC(=O)n1c(-c2ccc(Cl)cc2)nc2c(c1=O)C(c1ccc(Cl)cc1)c1sc3c(Cl)cccc3c1O2 (centres undefined) | 5.88 µM |
| CCOC(=O)c1ccc(C(=O)/C(C(=O)OC(C)(C)C)=C2\CCCN2C)n1C | 77.8 µM |
| CC1=C(C(=O)NNC(=O)CC#N)CC(C(=O)NNC(=O)CC#N)=C(C)N1 | > 100 µM |
| Cc1sc(C)c(-c2ccc(CO)o2)c1-c1ccc(CO)o1 | > 100 µM |
| O=C1N[C@@H](O)[C@@H]2ON=C(c3ccccc3)[C@H]12 | > 100 µM |
| CN(C)CCNC(=O)Nc1c(C#N)[n+]([O-])c2cc(Cl)c(Cl)cc2[n+]1[O-] | > 100 µM |
| COc1cc(CCCOC2OC(COC3OCC(O)C(O)C3O)C(O)C(O)C2O)cc2cc(-c3ccc4c(c3)OCO4)oc12 (centres undefined) | > 175 µM |
| COC(=O)C(=O)C(C(=O)C(=O)Nc1cc([N+](=O)[O-])ccc1C#N)c1nc2ccccc2[nH]c1=O (centres undefined) | > 100 µM |
| CCC1(CC)C(=O)NC(=S)N=C1N | > 100 µM |
| OC(c1ccco1)C(F)(F)c1nc2ccccc2o1 (centres undefined) | > 100 µM |
| CC/C=C\C/C=C\C/C=C\CCCCCCCC(=O)OC(COC(=O)CCCCCCCCCCCCCCCCC)COC1OC(CO)C(O)C(O)C1O (centres undefined) | > 25 µM |
| NS(=O)(=O)c1ccc(NC(=O)c2cccc3c(=O)c4ccccc4[nH]c23)cc1 | 55.2 µM |
| O=c1c(Cc2ccccc2)c(-c2ccccc2)[nH]n1C1=NCCN1 | > 100 µM |
| CN1c2ccccc2C(=O)NC12CCN(CC1COc3ccccc3O1)CC2 (centres undefined) | > 100 µM |
| CC(=O)OCCOCBr | > 100 µM |
| CCOC(=O)C(NC(=O)c1ccc(N=NN(C)C)cc1)C(C)C (centres undefined) | > 100 µM |
| CC1CCCC(C(=O)/C(=C/c2cccc(Cl)c2)C(=O)C(=O)O)C1 (centres undefined) | > 100 µM |
| CC1=C(C)C(=O)O[C@@H]([C@](C)(O)[C@]2(O)CC[C@@]3(O)[C@@H]4C[C@H]5O[C@]56CC=CC(=O)[C@]6(C)[C@H]4CC[C@]23C)C1 | 1.2 µM |
| CCOC(=O)Cc1nc(/C(C#N)=C/c2ccco2)[nH]c(=O)c1C#N | > 100 µM |
| CCCCCC(=O)Oc1ccc(/C(=C(\C)c2ccc(OC)cc2)c2ccc(OCCN3CCCCC3)cc2)cc1 | 26.3 µM |
